target: Ba/F3-EGFR-D770_N771 insSVD C797S cells (Homo sapiens, UniProt P00533, DUP768-770/C797S, cells depend on it); assay: Ba/F3 cell survival assay, EGFR D770_N771insSVD C797S; assay type: cell-based; details: without IL-3, without EGF, 48 h; read-out: BA/F3 (EGFR 0770_N771 insSVD C797S) IC50
Sequence (P00533 with tags, fused parts or gaps DUP768-770/C797S): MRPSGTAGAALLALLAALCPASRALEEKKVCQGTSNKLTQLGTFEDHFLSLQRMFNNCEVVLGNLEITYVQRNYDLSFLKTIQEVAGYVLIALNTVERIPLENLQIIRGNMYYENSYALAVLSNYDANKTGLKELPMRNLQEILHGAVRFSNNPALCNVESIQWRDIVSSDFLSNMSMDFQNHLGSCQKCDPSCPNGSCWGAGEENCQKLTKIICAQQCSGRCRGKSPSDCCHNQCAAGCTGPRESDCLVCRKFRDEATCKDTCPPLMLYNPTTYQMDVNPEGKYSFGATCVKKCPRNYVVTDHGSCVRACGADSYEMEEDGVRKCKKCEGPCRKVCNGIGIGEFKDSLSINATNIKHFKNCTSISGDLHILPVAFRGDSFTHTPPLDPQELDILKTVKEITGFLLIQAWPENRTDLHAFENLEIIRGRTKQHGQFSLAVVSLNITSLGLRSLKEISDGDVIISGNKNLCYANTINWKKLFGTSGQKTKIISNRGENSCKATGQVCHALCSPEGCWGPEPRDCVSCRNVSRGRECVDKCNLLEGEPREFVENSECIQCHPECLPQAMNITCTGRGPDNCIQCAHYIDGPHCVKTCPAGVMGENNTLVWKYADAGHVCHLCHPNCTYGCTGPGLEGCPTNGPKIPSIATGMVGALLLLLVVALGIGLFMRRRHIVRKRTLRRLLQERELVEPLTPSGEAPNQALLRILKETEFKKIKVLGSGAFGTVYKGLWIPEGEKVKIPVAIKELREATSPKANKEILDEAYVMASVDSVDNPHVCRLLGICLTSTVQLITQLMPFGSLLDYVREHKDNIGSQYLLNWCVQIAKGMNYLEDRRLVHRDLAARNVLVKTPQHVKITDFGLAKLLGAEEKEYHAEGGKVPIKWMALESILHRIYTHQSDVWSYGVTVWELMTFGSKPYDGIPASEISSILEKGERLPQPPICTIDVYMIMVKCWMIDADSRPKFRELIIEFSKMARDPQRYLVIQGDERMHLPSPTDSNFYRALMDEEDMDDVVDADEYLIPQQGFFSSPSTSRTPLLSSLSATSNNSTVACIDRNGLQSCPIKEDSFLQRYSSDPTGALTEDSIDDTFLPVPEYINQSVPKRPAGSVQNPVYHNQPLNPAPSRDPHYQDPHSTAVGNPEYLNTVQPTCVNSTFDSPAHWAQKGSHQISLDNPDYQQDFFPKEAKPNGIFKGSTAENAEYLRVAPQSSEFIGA
quantity: GI50 (nM)
One number for each entry, in nM.

Worked examples, 3 molecules total:
{"molecule": "COc1c(F)cccc1Nc1c(-c2ccncc2OC[C@@H]2COCCN2C)[nH]c2c1C(=O)NCC2", "assay-value": 12.2}
{"molecule": "O=C1NCCc2[nH]c(-c3ccncc3OCC3COCCO3)c(Nc3cccc(Cl)c3Cl)c21 (single isomer, unassigned)", "assay-value": 14.6}
{"molecule": "COc1c(F)cccc1Nc1c(-c2ccncc2OCC2CN(C)CCO2)[nH]c2c1C(=O)NCC2 (single isomer, unassigned)", "assay-value": 24.9}

Please state, for each entry, its recorded GI50.
1. COc1c(Cl)cccc1Nc1c(-c2ccncc2OC[C@@H]2COCCO2)[nH]c2c1C(=O)NCC2 (single isomer, unassigned)
2. CCc1c(Cl)cccc1Nc1c(-c2ccncc2OC[C@@H]2CN(C)CCO2)[nH]c2c1C(=O)NCC2
3. COc1c(Cl)cccc1Nc1c(-c2ccncc2OC[C@@H]2COCCN2C)[nH]c2c1C(=O)NCC2
4. Cc1c(Cl)cccc1Nc1c(-c2ccncc2OC[C@H]2COCCO2)[nH]c2c1C(=O)NCC2 (single isomer, unassigned)

Reply:
[8.22, 14, 7.84, 26.7]
